- target-desc: hNav1.7 (Homo sapiens, UniProt Q15858)
- Sequence (Q15858 whole entry): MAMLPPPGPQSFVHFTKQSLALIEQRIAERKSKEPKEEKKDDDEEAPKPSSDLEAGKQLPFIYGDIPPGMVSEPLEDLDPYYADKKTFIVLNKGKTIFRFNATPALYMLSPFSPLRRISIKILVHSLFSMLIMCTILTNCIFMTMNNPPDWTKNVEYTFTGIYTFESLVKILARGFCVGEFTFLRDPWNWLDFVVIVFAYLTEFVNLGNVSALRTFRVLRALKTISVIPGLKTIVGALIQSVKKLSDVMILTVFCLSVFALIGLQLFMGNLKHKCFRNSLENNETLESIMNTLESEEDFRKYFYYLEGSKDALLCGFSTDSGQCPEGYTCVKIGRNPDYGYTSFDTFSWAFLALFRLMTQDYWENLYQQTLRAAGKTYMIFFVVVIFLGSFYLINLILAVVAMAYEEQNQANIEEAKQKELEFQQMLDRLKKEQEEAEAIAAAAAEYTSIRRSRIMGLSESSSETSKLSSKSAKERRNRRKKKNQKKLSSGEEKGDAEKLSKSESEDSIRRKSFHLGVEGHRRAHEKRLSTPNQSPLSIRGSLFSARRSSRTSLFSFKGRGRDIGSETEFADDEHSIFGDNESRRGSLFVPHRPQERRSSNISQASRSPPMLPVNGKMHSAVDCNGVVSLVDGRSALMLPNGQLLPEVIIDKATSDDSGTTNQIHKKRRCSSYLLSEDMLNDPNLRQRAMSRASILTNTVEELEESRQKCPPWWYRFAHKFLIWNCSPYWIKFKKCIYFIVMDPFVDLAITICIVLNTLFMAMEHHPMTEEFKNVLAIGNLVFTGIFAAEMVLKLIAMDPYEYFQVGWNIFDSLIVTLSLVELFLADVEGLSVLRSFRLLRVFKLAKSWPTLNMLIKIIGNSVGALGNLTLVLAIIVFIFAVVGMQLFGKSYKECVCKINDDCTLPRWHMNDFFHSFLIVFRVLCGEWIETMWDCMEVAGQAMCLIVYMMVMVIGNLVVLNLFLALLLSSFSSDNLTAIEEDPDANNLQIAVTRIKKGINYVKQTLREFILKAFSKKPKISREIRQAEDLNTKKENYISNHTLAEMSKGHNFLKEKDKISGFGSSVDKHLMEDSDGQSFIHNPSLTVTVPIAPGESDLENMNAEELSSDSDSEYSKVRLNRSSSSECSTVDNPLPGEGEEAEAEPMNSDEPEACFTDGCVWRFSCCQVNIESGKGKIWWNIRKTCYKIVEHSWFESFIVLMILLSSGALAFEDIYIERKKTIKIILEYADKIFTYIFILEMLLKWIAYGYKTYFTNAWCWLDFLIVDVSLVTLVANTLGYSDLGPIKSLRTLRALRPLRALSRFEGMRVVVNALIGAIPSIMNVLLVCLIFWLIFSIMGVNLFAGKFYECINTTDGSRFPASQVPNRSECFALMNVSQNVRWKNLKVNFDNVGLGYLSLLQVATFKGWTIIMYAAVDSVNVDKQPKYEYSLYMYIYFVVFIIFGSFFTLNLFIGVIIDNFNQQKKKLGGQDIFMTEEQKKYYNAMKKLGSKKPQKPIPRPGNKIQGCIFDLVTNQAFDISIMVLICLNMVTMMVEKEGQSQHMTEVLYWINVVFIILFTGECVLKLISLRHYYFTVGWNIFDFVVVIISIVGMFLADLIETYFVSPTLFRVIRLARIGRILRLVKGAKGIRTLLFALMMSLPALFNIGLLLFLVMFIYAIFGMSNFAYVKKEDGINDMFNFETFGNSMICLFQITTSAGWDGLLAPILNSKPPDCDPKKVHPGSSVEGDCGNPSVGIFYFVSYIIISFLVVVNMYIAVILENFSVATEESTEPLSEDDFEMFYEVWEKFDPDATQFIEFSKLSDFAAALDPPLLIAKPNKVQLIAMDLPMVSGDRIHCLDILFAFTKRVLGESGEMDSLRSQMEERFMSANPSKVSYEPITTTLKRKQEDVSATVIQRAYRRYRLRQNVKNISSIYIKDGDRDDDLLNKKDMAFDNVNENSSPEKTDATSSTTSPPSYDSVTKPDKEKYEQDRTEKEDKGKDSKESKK
- test-method-notes: cell-based
Consider the following compounds and their measured IC50 readings.

Respond only with IC50 recorded for `O=C1NC(=O)C(c2ccccc2)(c2ccccc2)N1` 18.7 µM

Respond only with IC50 recorded for `Nc1nnc(-c2cccc(Cl)c2Cl)c(N)n1` 66.3 µM

Respond only with IC50 recorded for `Nc1nc2ccc(SC(F)(F)F)cc2s1` 2.02 µM

Respond only with IC50 recorded for `CCN(CC)CC(=O)Nc1c(C)cccc1C` 151 µM
